// data source = patent US9211296B2

# Test system: vaccinia virus WR
# PROCEDURE_TEXT: microbe, parasite or virus in culture
# Assay type: cell-based
# EXPERIMENTAL_CONDITIONS: Orthopoxvirus vaccinia, BSC-1, 20 h, read-out: plaque red EC50
REPORTED_PROPERTY: EC50 (µM)
State just the number; it will be interpreted in µM.

**Q:** Supply recorded EC50 for "N=C1S/C(=C/c2ccco2)C(=O)N1c1nccs1" here.
**A:** 75

**Q:** Supply recorded EC50 for "Cc1csc2c(N3CCN(C(=O)NC(C)(C)C)CC3)ncnc12" here.
**A:** 15

**Q:** Supply recorded EC50 for "CCn1c2ccccc2c2ccc(/C=N/n3cnnc3)cc21" here.
**A:** 50

**Q:** Supply recorded EC50 for Nc1ccn(C[C@@H](CO)OCP(=O)(O)O)c(=O)n1 [Cidofovir, reference compound] here.
**A:** 50

**Q:** Supply recorded EC50 for "CCS(=O)(=O)N1CCN=C1SCc1ccc(Cl)cc1Cl" here.
**A:** 25

**Q:** Supply recorded EC50 for "N=C1/C(=C/c2coc3ccccc3c2=O)C(=O)N=C2SC=NN12" here.
**A:** 150

**Q:** Supply recorded EC50 for "CCNc1nc(SCc2ccc(Cl)cc2)nc2sc3c(c12)CCN(C)C3" here.
**A:** 15

**Q:** Supply recorded EC50 for "O=C(Nc1ccccc1C(=O)O)OCC1c2ccccc2-c2ccccc21" here.
**A:** 75

**Q:** Supply recorded EC50 for "COC(=O)c1cccc2c1-c1ccccc1/C2=N\O" here.
**A:** 10

**Q:** Supply recorded EC50 for "O=C(O)Cn1c2ccc(Cl)cc2c2nc3ccccc3nc21" here.
**A:** 50

**Q:** Supply recorded EC50 for O=C1/C(=C/C2CCCO2)CC/C1=C\C1CCCO1 (stereo not drawn) here.
**A:** 50

**Q:** Supply recorded EC50 for "Cc1cc(OC(=O)c2ccco2)nc(SCc2c(Cl)cccc2Cl)n1" here.
**A:** 75

---

# Tested on: vaccinia virus WR
# PROCEDURE_TEXT: microbe, parasite or virus in culture
# Format: cell-based
# EXPERIMENTAL_CONDITIONS: read-out: Plaque Reduction 20 h EC50
REPORTED_PROPERTY: EC50 (nM)
State just the number; it will be interpreted in nM.

**Q:** Supply recorded EC50 for Nc1ccn([C@@H]2O[C@H](CO)[C@@H](O)[C@@H]2O)c(=O)n1 [Ara-C, reference compound] here.
**A:** 500

---

# PROCEDURE_TEXT: in vitro
# EXPERIMENTAL_CONDITIONS: African green monkey
REPORTED_PROPERTY: CC50

**Q:** Supply recorded CC50 for "Oc1ccc(Cl)cc1Sc1cc(Cl)ccc1O" here.
**A:** > 200 µM

---

# System: BS-C-1 cells
# PROCEDURE_TEXT: WST-1 cytotoxicity assay
# EXPERIMENTAL_CONDITIONS: read-out: Cytotoxicity 20 h CC50; 20 h, Table 4
Exercise: state measured CC50 for each of the compounds provided.

**Q:** Supply recorded CC50 for Nc1ccn([C@@H]2O[C@H](CO)[C@@H](O)[C@@H]2O)c(=O)n1 [Ara-C, reference compound] here.
**A:** 16 µM

**Q:** Supply recorded CC50 for O=C(O)Cn1c2ccc(Cl)cc2c2nc3ccccc3nc21 [Compound 13] here.
**A:** > 100 µM

**Q:** Supply recorded CC50 for CCS(=O)(=O)N1CCN=C1SCc1ccc(Cl)cc1Cl [Compound 10] here.
**A:** 166 µM

**Q:** Supply recorded CC50 for N=C1/C(=C/c2coc3ccccc3c2=O)C(=O)N=C2SC=NN12 [Compound 14] here.
**A:** > 200 µM

**Q:** Supply recorded CC50 for CCNc1nc(SCc2ccc(Cl)cc2)nc2sc3c(c12)CCN(C)C3 [Compound 5] here.
**A:** 115 µM

**Q:** Supply recorded CC50 for Cc1cc(/N=C/c2cc(Cl)cc(Cl)c2O)no1 [Compound 6] here.
**A:** > 200 µM

**Q:** Supply recorded CC50 for CC(=O)n1c2ccccc2c2nc(C)sc21 [Compound 15] here.
**A:** > 200 µM

**Q:** Supply recorded CC50 for O=C1/C(=C/C2CCCO2)CC/C1=C\C1CCCO1 (stereo not drawn) [Compound 16] here.
**A:** > 100 µM

**Q:** Supply recorded CC50 for O=C(Nc1ccccc1C(=O)O)OCC1c2ccccc2-c2ccccc21 [Compound 9] here.
**A:** > 200 µM
